Where do the numbers come from? From ChEMBL document CHEMBL5303573.

# Assay summary: The drug is tested on Parabacteroides merdae strain: ATCC43184 for biotransformation. The drug concentrations were measured before and after a 12-h incubation by liquid-chromatography-coupled mass spectrometry (LC–MS)
# Stated conditions: 2 µM
Endpoint name: Bacterial Biotransformation

Previously resolved entries follow.
Q: Look at this compound and give its reported Bacterial Biotransformation. COc1ccc2c3c1O[C@H]1C[C@@H](O)C=C[C@@]31CCN(C)C2
Ans: Compound NOT metabolized

Q: Fill blank: measured Bacterial Biotransformation of the compound O=C(NCc1ccccc1)OCCO [BURAMATE] is ____.
Ans: Compound NOT metabolized

Q: May I ask what Bacterial Biotransformation has been recorded for COC(=O)C1=C(C)NC(C)=C(C(=O)OC(C)C)C1c1cccc2nonc12 (stereo not given) ?
Ans: Compound NOT metabolized

Q: GET /values?readout=Bacterial Biotransformation&item= CC(C)(C)NCC(O)COc1cccc2c1CC(O)C(O)C2 (stereo not given)
Ans: Compound NOT metabolized

Q: Need Bacterial Biotransformation of CC(=O)CC(c1ccccc1)c1c(O)c2ccccc2oc1=O (stereo not given) , thanks.
Ans: Compound NOT metabolized

More entries:
Q: Looking for the measured Bacterial Biotransformation of CN/C(=N/CCSCc1nc[nH]c1C)NC#N , can you help?
Ans: Compound NOT metabolized

Q: Value lookup for Bacterial Biotransformation; key = COc1cc2nc(N(C)CCCNC(=O)C3CCCO3)nc(N)c2cc1OC (stereo not given)
Ans: Compound NOT metabolized

Q: Field request: Bacterial Biotransformation | item: CC(C)[C@H]1CC[C@H](C(=O)N[C@H](Cc2ccccc2)C(=O)O)CC1 [NATEGLINIDE]
Ans: Compound NOT metabolized

Q: Entry under review: c1ccc([C@H]2CN3CCSC3=N2)cc1 . Reported Bacterial Biotransformation?
Ans: Compound NOT metabolized

Q: For COC(=O)[C@H]1[C@H]2C[C@@H]3c4[nH]c5cc(OC)ccc5c4CCN3C[C@H]2C[C@@H](OC(=O)c2cc(OC)c(OC)c(OC)c2)[C@@H]1OC , what is its reported Bacterial Biotransformation?
Ans: Compound NOT metabolized

Q: Recorded Bacterial Biotransformation for CN(C)C(=O)Oc1cccc([N+](C)(C)C)c1.[Br-] [NEOSTIGMINE BROMIDE] , please?
Ans: Compound metabolized

Q: Could you tell me which Bacterial Biotransformation is on file for CC(Oc1c(Cl)cccc1Cl)C1=NCCN1 (stereo not given) ?
Ans: Compound metabolized
